system: vancomycin-resistant Enterococcus faecalis HM-201; assay: Time-kill analysis; assay type: cell-based; conditions: 4 × MIC, 24 hour incubation, 37 °C
value type: Time-kill result (complete eradication of bacteria)

CCCCC#Cc1ccc(-c2nc(C)c(/C(C)=N/NC(=N)N)s2)cc1	within two hours
C/C(=N\NC(=N)N)c1sc(-c2ccc(-c3ccccc3)cc2)nc1C	within two hours
CCCCc1ccc(-c2nc(C)c(/C(C)=N/NC(=N)N)s2)cc1	within two hours

###

system: vancomycin-resistant Enterococcus faecalis ATCC 51299; experiment: Multi-step resistance selection; type: cell-based; conditions: one-fold increase = MIC x → 2x
value type: Shift in MIC over 14 serial passages

CCCCC#Cc1ccc(-c2nc(C)c(/C(C)=N/NC(=N)N)s2)cc1	one-fold increase
CCCCc1ccc(-c2nc(C)c(/C(C)=N/NC(=N)N)s2)cc1	one-fold increase
